system: T1, human ActRIIA (human, UniProt P27037 20-135, limits assumed)
T1 construct: antigen in MSD-SET; also called ACVR2A; ActR2A
T1 sequence (P27037 20-135 limits assumed): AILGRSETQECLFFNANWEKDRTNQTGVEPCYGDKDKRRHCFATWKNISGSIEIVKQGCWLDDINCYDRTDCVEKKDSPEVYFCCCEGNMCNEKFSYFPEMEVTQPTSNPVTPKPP
experiment-description: MSD-SET
Readings of Kd for the listed binders
Please respond with the number in nM and leave the unit unwritten.

>>> measured_value("Ochsamaulsalat Fab (Fab, V domains shown, Fab) VH: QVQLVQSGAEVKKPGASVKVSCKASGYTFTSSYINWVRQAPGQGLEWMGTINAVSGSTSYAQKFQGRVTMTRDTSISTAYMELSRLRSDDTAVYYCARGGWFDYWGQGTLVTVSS VL: QSALTQPASVSGSPGQSITISCTGTSSDVGSRNYVNWYQQHPGKAPKLMIYGVSKRESGVSNRFSGSKSGNTASLTISGLQAEDEADYYCGTFAGGDYYGVFGGGTKLTVL")
0.055

Now for another entry.
Please report the measured Kd for Biiramooscht Fab (Fab, V domains shown, Fab) VH: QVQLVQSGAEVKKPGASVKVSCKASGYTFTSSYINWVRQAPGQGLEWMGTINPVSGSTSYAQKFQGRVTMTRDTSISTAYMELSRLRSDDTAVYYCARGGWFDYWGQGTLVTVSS VL: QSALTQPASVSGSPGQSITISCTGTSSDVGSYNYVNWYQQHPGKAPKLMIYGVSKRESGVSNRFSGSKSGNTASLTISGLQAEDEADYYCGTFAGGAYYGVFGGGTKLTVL
0.145

This collection of values is drawn from patent US20250243286A1.
